# Assayed System: 5-hydroxytryptamine receptor 2B (Homo sapiens, UniProt P41595)
# Sequence (P41595 whole entry): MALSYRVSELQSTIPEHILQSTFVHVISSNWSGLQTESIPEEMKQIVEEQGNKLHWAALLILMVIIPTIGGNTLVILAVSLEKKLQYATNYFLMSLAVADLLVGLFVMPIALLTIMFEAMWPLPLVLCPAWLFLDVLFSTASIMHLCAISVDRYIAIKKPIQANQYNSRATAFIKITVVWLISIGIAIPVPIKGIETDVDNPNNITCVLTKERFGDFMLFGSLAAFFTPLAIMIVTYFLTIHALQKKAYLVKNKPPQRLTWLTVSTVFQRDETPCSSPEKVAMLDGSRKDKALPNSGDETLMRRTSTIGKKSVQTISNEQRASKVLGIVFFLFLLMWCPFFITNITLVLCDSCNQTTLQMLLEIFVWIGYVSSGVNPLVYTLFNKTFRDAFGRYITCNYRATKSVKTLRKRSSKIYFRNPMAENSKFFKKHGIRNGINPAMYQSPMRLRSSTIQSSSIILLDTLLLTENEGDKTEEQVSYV
Readout Label: Ki (nM)

# get_value(readout='Ki', item= `CN(C)CCN(Cc1ccc(-c2ccc(CNCCc3ccccc3)cc2)cc1)C(=O)CCC1CCCC1` ) 1000

Find the recorded Ki belonging to `CN(C)CCN(Cc1ccc(-c2ccc(CNCCc3ccccc3)cc2)cc1)C(=O)/C=C/c1ccccc1` and report it. 1260

====

# Experiment: Bioavailability in guinea pig at a dose of 3 mg/kg upon subcutaneous administration
# Type: ADME, organism-based, Cavia porcellus
# Test Context: in vivo, sc
Readout Label: bioavailability (%)
Output spec: scalar in %, unitless text.

For the molecule `CN(C)CCN(Cc1ccc(-c2ccc(CNCCc3ccccc3)cc2)cc1)C(=O)CCC1CCCC1.Cl.Cl` , what bioavailability is on record? 63
